biological target: human TRPA1 (Homo sapiens, UniProt O75762); construct: expressed in transfected cells; host or cells: CHO cells (G-418 selection); assay: 45Calcium uptake assay: inhibition of AITC induced cellular uptake of radioactive calcium, human TRPA1 expressing CHO cells; assay type: cell-based; settings: 1.0 μM compound, AITC 30 μM, read-out: human TRPA1 Percentage inhibition at 1.0 μM
Sequence (O75762 whole entry): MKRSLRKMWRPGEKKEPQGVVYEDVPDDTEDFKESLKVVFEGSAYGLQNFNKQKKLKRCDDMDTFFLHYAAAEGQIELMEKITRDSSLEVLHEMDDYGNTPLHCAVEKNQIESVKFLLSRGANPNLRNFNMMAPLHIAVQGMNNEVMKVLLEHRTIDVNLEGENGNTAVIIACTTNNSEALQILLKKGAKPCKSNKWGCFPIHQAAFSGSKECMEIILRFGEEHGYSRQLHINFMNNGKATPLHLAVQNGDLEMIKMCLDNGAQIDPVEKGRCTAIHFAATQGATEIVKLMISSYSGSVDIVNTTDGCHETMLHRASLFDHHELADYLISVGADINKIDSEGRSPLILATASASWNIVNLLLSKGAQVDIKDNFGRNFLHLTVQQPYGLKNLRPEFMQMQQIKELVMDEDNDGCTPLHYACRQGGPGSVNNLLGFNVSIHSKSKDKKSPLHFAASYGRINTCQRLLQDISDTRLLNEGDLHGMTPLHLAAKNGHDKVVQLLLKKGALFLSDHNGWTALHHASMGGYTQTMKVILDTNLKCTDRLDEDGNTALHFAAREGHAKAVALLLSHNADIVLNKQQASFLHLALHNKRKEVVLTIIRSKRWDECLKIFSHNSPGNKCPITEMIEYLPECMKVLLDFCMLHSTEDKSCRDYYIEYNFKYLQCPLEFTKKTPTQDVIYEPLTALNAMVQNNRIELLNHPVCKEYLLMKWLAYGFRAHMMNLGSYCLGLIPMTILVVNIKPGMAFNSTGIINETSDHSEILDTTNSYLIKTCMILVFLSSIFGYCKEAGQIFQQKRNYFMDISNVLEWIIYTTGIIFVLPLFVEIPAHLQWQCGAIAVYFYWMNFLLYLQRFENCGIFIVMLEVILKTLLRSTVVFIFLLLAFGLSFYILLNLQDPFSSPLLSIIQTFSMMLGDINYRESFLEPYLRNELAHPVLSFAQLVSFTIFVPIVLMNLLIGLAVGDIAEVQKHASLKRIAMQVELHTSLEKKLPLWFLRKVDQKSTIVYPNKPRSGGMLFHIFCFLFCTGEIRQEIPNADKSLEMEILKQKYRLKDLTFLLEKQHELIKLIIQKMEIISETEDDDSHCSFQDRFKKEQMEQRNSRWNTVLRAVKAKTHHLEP
Kindly supply the reported inhibition at 1 µM values for the records listed here.
One number for each entry, in %.

[[record]]
structure_as_smiles = "Cn1c(=O)c2c(CC(=O)Nc3nc(-c4ccc(Cl)c(OC(F)(F)F)c4)cs3)coc2n(C)c1=O"
assay_metric = "inhibition at 1 µM"
endpoint_unit = "%"
measured_number = 99.9

[[record]]
structure_as_smiles = "Cn1c(=O)c2c(CC(=O)Nc3nc(-c4ccc(Cl)c(Cl)c4Cl)cs3)coc2n(C)c1=O"
assay_metric = "inhibition at 1 µM"
endpoint_unit = "%"
measured_number = 97

[[record]]
structure_as_smiles = "Cn1c(=O)c2c(CC(=O)Nc3nc(-c4cccc(OC(F)(F)F)c4)cs3)coc2n(C)c1=O"
assay_metric = "inhibition at 1 µM"
endpoint_unit = "%"
measured_number = 99.3

[[record]]
structure_as_smiles = "Cn1c(=O)c2c(CC(=O)Nc3nc(-c4cc(F)c(OCC(F)(F)F)c(F)c4)cs3)coc2n(C)c1=O"
assay_metric = "inhibition at 1 µM"
endpoint_unit = "%"
measured_number = 99.8


Give inhibition at 1 µM for each of the items listed below.
1. Cn1c(=O)c2c(CC(=O)Nc3nc(-c4ccc(Cl)c(Cl)c4)cs3)coc2n(C)c1=O
2. CC(C)CCOc1c(F)cc(-c2csc(NC(=O)Cc3coc4c3c(=O)n(C)c(=O)n4C)n2)cc1F
3. Cn1c(=O)c2c(CC(=O)Nc3nc(-c4ccc(OCC(F)(F)F)c(Cl)c4)cs3)coc2n(C)c1=O
4. Cn1c(=O)c2c(CC(=O)Nc3nc(-c4ccc(F)c(C(F)(F)F)c4)cs3)coc2n(C)c1=O
5. Cn1c(=O)c2c(CC(=O)Nc3nc(-c4ccc(OC(F)F)c(Cl)c4)cs3)coc2n(C)c1=O
6. Cn1c(=O)c2c(CC(=O)Nc3nc(-c4cc(F)c(OCC(C)(C)C)c(F)c4)cs3)coc2n(C)c1=O
7. Cn1c(=O)c2c(CC(=O)Nc3nc(-c4cc(F)c(OC(F)F)c(F)c4)cs3)coc2n(C)c1=O
8. Cn1c(=O)c2c(CC(=O)Nc3nc(-c4ccc(OC(F)(F)F)cc4)cs3)coc2n(C)c1=O

1: 98.5; 2: 90.7; 3: 98.3; 4: 99.9; 5: 97.4; 6: 96.1; 7: 99.9; 8: 93.2

====

target: human TRPA1 (Homo sapiens); construct: expressed in transfected cells; host or cells: CHO cells (G-418 selection); test: 45Calcium uptake assay: inhibition of AITC induced cellular uptake of radioactive calcium, human TRPA1 expressing CHO cells; type: cell-based; conditions: numeric values, AITC 30 μM
For each record, write down the corresponding pIC50.
Answers are plain numbers, as −log10 of the molar value.

[[record]]
molecule = "Cc1oc2c(c1CC(=O)Nc1nc(-c3cc(F)c(OCC(F)(F)F)c(F)c3)cs1)c(=O)n(C)c(=O)n2C [Example 87]"
measured_number = 8.77

[[record]]
molecule = "Cc1oc2c(c1CC(=O)Nc1nc(-c3cc(F)c(OC(F)F)c(F)c3)cs1)c(=O)n(C)c(=O)n2C [Example 85]"
measured_number = 8.18

[[record]]
molecule = "Cc1oc2c(c1CC(=O)Nc1nc(-c3cc(Cl)c(OCC(F)(F)F)c(Cl)c3)cs1)c(=O)n(C)c(=O)n2C [Example 88]"
measured_number = 8.75

[[record]]
molecule = "Cc1oc2c(c1CC(=O)Nc1nc(-c3cc(F)c(OCC(C)(C)C)c(F)c3)cs1)c(=O)n(C)c(=O)n2C [Example 80]"
measured_number = 8.44

[[record]]
molecule = "Cc1oc2c(c1CC(=O)Nc1nc(-c3cc(F)c(Cl)cc3Cl)cs1)c(=O)n(C)c(=O)n2C [Example 79]"
measured_number = 6.61

[[record]]
molecule = "Cc1oc2c(c1CC(=O)Nc1nc(-c3cc(F)c(F)cc3F)cs1)c(=O)n(C)c(=O)n2C [Example 75]"
measured_number = 7.73

[[record]]
molecule = "Cc1oc2c(c1CC(=O)Nc1nc(-c3ccc(F)c(C(F)(F)F)c3F)cs1)c(=O)n(C)c(=O)n2C [Example 83]"
measured_number = 8.34

[[record]]
molecule = "Cc1oc2c(c1CC(=O)Nc1nc(-c3cc(Cl)c(OCC(C)C)c(Cl)c3)cs1)c(=O)n(C)c(=O)n2C [Example 82]"
measured_number = 8.48


Batch lookup, pIC50 per entry.
1. Cc1oc2c(c1CC(=O)Nc1nc(-c3cc(F)c(OCC4CC4)c(F)c3)cs1)c(=O)n(C)c(=O)n2C [Example 89]
2. Cc1oc2c(c1CC(=O)Nc1nc(-c3cc(Cl)c(OC(F)F)c(Cl)c3)cs1)c(=O)n(C)c(=O)n2C [Example 86]
3. Cc1oc2c(c1CC(=O)Nc1nc(-c3ccc(F)c(F)c3F)cs1)c(=O)n(C)c(=O)n2C [Example 77]
4. Cc1oc2c(c1CC(=O)Nc1nc(-c3cc(F)c(OCC(C)C)c(F)c3)cs1)c(=O)n(C)c(=O)n2C [Example 81]
5. Cc1oc2c(c1CC(=O)Nc1nc(-c3ccc(F)c(C(F)(F)F)c3)c(C)s1)c(=O)n(C)c(=O)n2C [Example 90]
6. Cc1oc2c(c1CC(=O)Nc1nc(-c3cc(F)c(C(F)(F)F)c(F)c3)cs1)c(=O)n(C)c(=O)n2C [Example 84]
7. Cc1oc2c(c1CC(=O)Nc1nc(-c3ccc(F)c(Cl)c3F)cs1)c(=O)n(C)c(=O)n2C [Example 78]
8. Cc1oc2c(c1CC(=O)Nc1nc(-c3cc(F)c(F)c(F)c3)cs1)c(=O)n(C)c(=O)n2C [Example 76]

[8.01, 8.39, 7.72, 8.33, 7.85, 8.38, 7.46, 8.12]

====

target: human TRPA1 (Homo sapiens); construct: expressed in transfected cells; host or cells: CHO cells (G-418 selection); assay: 45Calcium uptake assay: inhibition of AITC induced cellular uptake of radioactive calcium, human TRPA1 expressing CHO cells; assay type: cell-based; details: 1.0 μM compound, AITC 30 μM, read-out: human TRPA1 Percentage inhibition at 1.0 μM
assay-metric: inhibition at 1 µM (%)
Numbers only, in %.

Solved entries (count: 2):
[[record]]
structure_as_smiles = "Cn1c(=O)c2c(CC(=O)Nc3nc(-c4ccc(OCC(C)(C)C)c(Br)c4)cs3)coc2n(C)c1=O"
subject_of_test = "human TRPA1 (Homo sapiens)"
measured_number = 96.7

[[record]]
structure_as_smiles = "CC(C)COc1c(Cl)cc(-c2csc(NC(=O)Cc3coc4c3c(=O)n(C)c(=O)n4C)n2)cc1Cl"
subject_of_test = "human TRPA1 (Homo sapiens)"
measured_number = 99.6


# inhibition at 1 µM (compound: Cn1c(=O)c2c(CC(=O)Nc3nc(-c4ccc(C(F)(F)F)c(F)c4)cs3)coc2n(C)c1=O ) is 99.4

====

target: human TRPA1 (Homo sapiens, UniProt O75762); construct: expressed in transfected cells; host or cells: CHO cells (G-418 selection); test: 45Calcium uptake assay: inhibition of AITC induced cellular uptake of radioactive calcium, human TRPA1 expressing CHO cells; type: cell-based; settings: class symbols, AITC 30 μM
Kindly state IC50 for each of the entries shown.

[[record]]
structure_as_smiles = "Cn1c(=O)c2c(CC(=O)Nc3nc(-c4cc(F)c(OCC5CC5)c(F)c4)cs3)coc2n(C)c1=O"
assay_metric = "IC50"
result = "< 0.05 µM"

[[record]]
structure_as_smiles = "Cn1c(=O)c2c(CC(=O)Nc3ccc(Oc4ccc(C(F)(F)F)cc4)cc3)coc2n(C)c1=O"
assay_metric = "IC50"
result = "> 0.1 µM"

[[record]]
structure_as_smiles = "Cc1oc2c(c1CC(=O)Nc1nc(-c3ccc(Cl)c(C(F)(F)F)c3)cs1)c(=O)n(C)c(=O)n2C"
assay_metric = "IC50"
result = "< 0.05 µM"

[[record]]
structure_as_smiles = "Cn1c(=O)c2c(CC(=O)Nc3nc(-c4ccc(OC(F)F)c(F)c4)cs3)coc2n(C)c1=O"
assay_metric = "IC50"
result = "< 0.05 µM"

[[record]]
structure_as_smiles = "Cn1c(=O)c2c(CC(=O)Nc3nc(-c4cc(F)c(C(F)(F)F)c(F)c4)cs3)coc2n(C)c1=O"
assay_metric = "IC50"
result = "< 0.05 µM"


Give IC50 for each listed item.
1. Cn1c(=O)c2c(CC(=O)Nc3nc(-c4ccc(Cl)c(OC(F)(F)F)c4)cs3)coc2n(C)c1=O
2. CC(C)COc1ccc(-c2csc(NC(=O)Cc3coc4c3c(=O)n(C)c(=O)n4C)n2)cc1Br
3. Cn1c(=O)c2c(CC(=O)Nc3nc(-c4ccc(OCC(F)(F)F)c(Br)c4)cs3)coc2n(C)c1=O
4. CC(C)COc1c(F)cc(-c2csc(NC(=O)Cc3coc4c3c(=O)n(C)c(=O)n4C)n2)cc1F

1. < 0.05 µM
2. > 0.1 µM
3. < 0.05 µM
4. < 0.05 µM

Below is a list of molecules. For each, state its recorded IC50.
1. Cn1c(=O)c2c(CC(=O)Nc3nc(-c4ccc(F)c(F)c4)cs3)coc2n(C)c1=O
2. Cc1oc2c(c1CC(=O)Nc1nc(-c3ccc(OCC(F)(F)F)c(Cl)c3)cs1)c(=O)n(C)c(=O)n2C
3. Cn1c(=O)c2c(CC(=O)Nc3nc(-c4cc(F)c(OCC(C)(C)C)c(F)c4)cs3)coc2n(C)c1=O
4. Cn1c(=O)c2c(CC(=O)Nc3nc(-c4cc(F)c(F)cc4F)cs3)coc2n(C)c1=O
5. Cn1c(=O)c2c(CC(=O)Nc3nc(-c4cc(Cl)c(OCC(F)(F)F)c(Cl)c4)cs3)coc2n(C)c1=O

1. 0.05 to 0.1 µM
2. < 0.05 µM
3. < 0.05 µM
4. < 0.05 µM
5. < 0.05 µM

I would be grateful if you could provide IC50 for each of the following entries.
1. Cn1c(=O)c2c(CC(=O)Nc3nc(-c4ccc(OC(F)(F)F)cc4)cs3)coc2n(C)c1=O
2. Cn1c(=O)c2c(CC(=O)Nc3nc(-c4ccc(OCC(F)(F)F)c(Cl)c4)cs3)coc2n(C)c1=O
3. Cn1c(=O)c2c(CC(=O)Nc3nc(-c4ccc(Cl)c(C(F)(F)F)c4)cs3)coc2n(C)c1=O
4. Cc1oc2c(c1CC(=O)Nc1nc(-c3ccc(OCC(F)(F)F)c(F)c3)cs1)c(=O)n(C)c(=O)n2C
5. Cn1c(=O)c2c(CC(=O)Nc3nc(-c4ccc(OC(F)(F)F)c(F)c4)cs3)coc2n(C)c1=O
6. Cc1oc2c(c1CC(=O)Nc1nc(-c3ccc(Cl)c(Cl)c3)cs1)c(=O)n(C)c(=O)n2C

1. < 0.05 µM
2. < 0.05 µM
3. < 0.05 µM
4. < 0.05 µM
5. < 0.05 µM
6. < 0.05 µM
